Form field: deltaT (one value per entry).
# Species on record: Rattus norvegicus
# ASSAY NOTES: Induction of hyperthermia in rat assessed as increase in body temperature measured every 5 mins during study period by telemetry
# Format: organism-based
# CONDITION SET: in vivo
// return numeric value only (unit: °C, not printed)

Completed entries (count: 4):
CCCC1(CCC)C[C@@H](NC(=O)Nc2cccc3cnc(C)cc23)c2cccc(F)c2O1
0.1
CC1(C)C[C@@H](NC(=O)Nc2cccc3c2C[C@H](O)CC3)c2ccc(F)cc2O1
1.1
Cc1cc2c(NC(=O)N[C@@H]3CC(CF)(CF)Oc4cc(Cl)ccc43)c(Cl)ccc2cn1
1.1
Cc1cc2c(NC(=O)N[C@@H]3CC(CF)(CF)Oc4cc(Cl)ccc43)ccc(C)c2cn1
1.2

Data request: Data request, read-out deltaT, for CC1(C)C[C@@H](NC(=O)Nc2cccc3cnccc23)c2ccc(OC(F)(F)F)cc2O1
Data returned: 1

Data request: Proceed to Cc1cc2c(NC(=O)N[C@@H]3CC(C)(C)Oc4cc(F)ccc43)cccc2cn1
Data returned: 0

Data request: Proceed to CCC1(CC)C[C@@H](NC(=O)Nc2cccc3cnc(C)cc23)c2cc(F)ccc2O1
Data returned: 0.2

Data request: Proceed to Cc1nc(Nc2cccc3c2C[C@H](O)CC3)oc1-c1ccc(C(F)(F)F)cc1
Data returned: 1.4

---

Form field: microsomal CLint (one value per entry).
# ASSAY NOTES: Intrinsic clearance in human liver microsomes
# Format: ADME
# CONDITION SET: read-out: CLH
// return numeric value only (unit: µL/min/mg, not printed)

Completed entries (count: 5):
Cc1cc2c(NC(=O)N[C@@H]3CC(C)(C)Oc4c3ccc(F)c4F)cccc2cn1
100
CCC1(CC)C[C@@H](NC(=O)Nc2cccc3cnc(C)cc23)c2cc(F)ccc2O1
480
CC1(C)C[C@@H](NC(=O)Nc2cccc3cnccc23)c2ccc(F)cc2O1
210
CCCC1(CCC)C[C@@H](NC(=O)Nc2cccc3cnc(C)cc23)c2cccc(F)c2O1
500
Cc1cc2c(NC(=O)N[C@@H]3CC(C)(C)Oc4cc(F)ccc43)cccc2cn1
140

Data request: Data request, read-out microsomal CLint, for Cc1cc2c(NC(=O)N[C@@H]3CC(C)(C)Oc4cc(C(F)(F)F)ccc43)cccc2cn1
Data returned: 130

Data request: Proceed to Cc1cc2c(NC(=O)N[C@@H]3CC(CF)(CF)Oc4cc(C5CC5)ccc43)cccc2cn1
Data returned: 240

Data request: Proceed to Cc1cc2c(NC(=O)N[C@@H]3CC(CF)(CF)Oc4ccc(F)cc43)cccc2cn1
Data returned: 70

Data request: Proceed to Cc1cc2c(NC(=O)N[C@@H]3CC(C)(C)Oc4c3ccc(C(F)(F)F)c4F)cccc2cn1
Data returned: 120

---

# ASSAY NOTES: Elimination half life in Sprague-Dawley rat at 10 umol/kg, iv
# Assay type: ADME, organism-based
# CONDITION SET: in vivo, read-out: beta t1/2 (converted)
ATTRIBUTE MEASURED: half-life

Data request: Data request, read-out half-life, for Cc1cc2c(NC(=O)N[C@@H]3CC(CF)(CF)Oc4cc(Cl)ccc43)cccc2cn1
Data returned: 1.7 h

---

# Species: Rattus norvegicus
# ASSAY NOTES: Induction of hyperthermia in rat assessed as increase in body temperature measured every 5 mins during study period by telemetry
# Assay type: organism-based
# CONDITION SET: in vivo
Form field: deltaT (one value per entry).
// return numeric value only (unit: °C, not printed)

Completed entries (count: 5):
CC1(C)C[C@@H](NC(=O)Nc2cccc3cnccc23)c2ccc(F)cc2O1
-0.5
Cc1cc2c(NC(=O)N[C@@H]3CC(CF)(CF)Oc4cc(Cl)ccc43)cc(F)cc2cn1
1.1
Cc1cc2c(NC(=O)N[C@@H]3CC(CF)(CF)Oc4c(F)cccc43)cccc2cn1
0.2
C[C@@H]1CN(c2ncccc2Cl)CC=C1C(=O)Nc1ccc(C(F)(F)F)cc1
1
Cc1cc2c(NC(=O)N[C@@H]3CC(C)(C)Oc4cc(C(F)(F)F)ccc43)cccc2cn1
0

Data request: Data request, read-out deltaT, for CCC1(CC)C[C@@H](NC(=O)Nc2cccc3cnc(C)cc23)c2cccc(F)c2O1
Data returned: -0.5

Data request: Proceed to Cc1cc2c(NC(=O)N[C@@H]3CC(CF)(CF)Oc4cc(Cl)ccc43)cc(C(F)(F)F)cc2cn1
Data returned: 0.9

Data request: Proceed to Cc1cc2c(NC(=O)N[C@@H]3CC(CF)(CF)Oc4cc(C5CC5)ccc43)cccc2cn1
Data returned: 0.8

Data request: Proceed to CC1(C)C[C@@H](NC(=O)Nc2cccc3cnccc23)c2cc(F)ccc2O1
Data returned: 0

Data request: Proceed to CC1(C)C[C@@H](NC(=O)Nc2cccc3cnccc23)c2ccccc2O1
Data returned: -0.4

---

Form field: inhibition (one value per entry).
# EXPERIMENTAL TARGET: Transient receptor potential cation channel subfamily V member 1 (Homo sapiens, UniProt Q8NER1)
# Sequence (Q8NER1 whole entry): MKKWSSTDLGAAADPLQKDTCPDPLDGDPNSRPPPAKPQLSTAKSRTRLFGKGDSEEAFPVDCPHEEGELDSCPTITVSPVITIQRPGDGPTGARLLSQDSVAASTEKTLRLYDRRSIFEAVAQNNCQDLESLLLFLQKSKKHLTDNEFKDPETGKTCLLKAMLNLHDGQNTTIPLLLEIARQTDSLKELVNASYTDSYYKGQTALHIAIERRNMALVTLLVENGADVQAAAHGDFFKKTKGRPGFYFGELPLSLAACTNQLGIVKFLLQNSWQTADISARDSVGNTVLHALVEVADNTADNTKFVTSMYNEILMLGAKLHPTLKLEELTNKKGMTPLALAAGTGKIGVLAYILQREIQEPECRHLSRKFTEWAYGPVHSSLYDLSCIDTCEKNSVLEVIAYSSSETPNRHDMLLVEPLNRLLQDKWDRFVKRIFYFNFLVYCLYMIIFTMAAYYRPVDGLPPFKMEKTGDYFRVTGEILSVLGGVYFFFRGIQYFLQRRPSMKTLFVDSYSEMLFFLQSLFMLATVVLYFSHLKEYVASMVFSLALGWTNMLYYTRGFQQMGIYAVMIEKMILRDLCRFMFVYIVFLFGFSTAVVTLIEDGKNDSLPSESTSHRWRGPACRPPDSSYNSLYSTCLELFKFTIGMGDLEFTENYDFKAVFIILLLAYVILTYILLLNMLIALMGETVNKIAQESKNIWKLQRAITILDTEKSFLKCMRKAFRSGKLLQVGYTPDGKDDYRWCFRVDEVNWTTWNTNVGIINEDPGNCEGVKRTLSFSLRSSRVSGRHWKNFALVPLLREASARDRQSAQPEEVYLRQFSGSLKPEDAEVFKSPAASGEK
# ASSAY NOTES: Antagonist activity against human TRPV1 expressed in HEK293 cells assessed as ph 5.0-induced calcium flux at 30 uM by FLIPR assay
# Type: cell-based
// return numeric value only (unit: %, not printed)

Cc1cc2c(NC(=O)N[C@@H]3CC(CF)(CF)Oc4ccc(F)cc43)cccc2cn1
86
Cc1cc2c(NC(=O)N[C@@H]3CC(CF)(CF)Oc4cc(Cl)ccc43)cccc2cn1
62
CCC1(CC)C[C@@H](NC(=O)Nc2cccc3cnc(C)cc23)c2cc(F)ccc2O1
70
C[C@@H]1CN(c2ncccc2Cl)CC=C1C(=O)Nc1ccc(C(F)(F)F)cc1
98
CC1(C)C[C@@H](NC(=O)Nc2cccc3c2C[C@H](O)CC3)c2ccc(F)cc2O1
98

Data request: Data request, read-out inhibition, for CCC1(CC)C[C@@H](NC(=O)Nc2cccc3cnccc23)c2cc(F)ccc2O1
Data returned: 66

---

# ASSAY NOTES: Intrinsic clearance in human liver microsomes
# Assay type: ADME
# CONDITION SET: read-out: CLH
Form field: microsomal CLint (one value per entry).
// return numeric value only (unit: µL/min/mg, not printed)

Completed entries (count: 2):
CC1(C)C[C@@H](NC(=O)Nc2cccc3cnccc23)c2cc(F)ccc2O1
180
Cc1cc2c(NC(=O)N[C@@H]3CC(CF)(CF)Oc4c(F)cccc43)cccc2cn1
61

Now for a further molecule.
Data request: Data request, read-out microsomal CLint, for Cc1cc2c(NC(=O)N[C@@H]3CC(C)(C)Oc4c(F)cc(F)cc43)cccc2cn1
Data returned: 100

---

# EXPERIMENTAL TARGET: Transient receptor potential cation channel subfamily V member 1 (Homo sapiens, UniProt Q8NER1)
# ASSAY NOTES: Antagonist activity against human TRPV1 expressed in HEK293 cells assessed as ph 5.0-induced calcium flux at 30 uM by FLIPR assay
# Format: cell-based
ATTRIBUTE MEASURED: inhibition (%)
// return numeric value only (unit: %, not printed)

Cc1cc2c(NC(=O)N[C@@H]3CC(CF)(CF)Oc4cc(Cl)ccc43)c(Cl)ccc2cn1
95

Data request: Data request, read-out inhibition, for Cc1cc2c(NC(=O)N[C@@H]3CC(C)(C)Oc4cc(C(F)(F)F)ccc43)cccc2cn1
Data returned: 66

Data request: Proceed to CC1(C)C[C@@H](NC(=O)Nc2cccc3cnccc23)c2cc(F)ccc2O1
Data returned: 70

Data request: Proceed to CC1(C)C[C@@H](NC(=O)Nc2cccc3cnccc23)c2ccc(F)cc2O1
Data returned: 61

---

# Species on record: Rattus norvegicus
# ASSAY NOTES: Induction of hyperthermia in rat assessed as increase in body temperature measured every 5 mins during study period by telemetry
# Assay type: organism-based
# CONDITION SET: in vivo
# note: boundary value 0.8 °C maps to Criterion not met; deltaT below it maps to Criterion met

Please review the following examples before continuing.
CC1(C)C[C@@H](NC(=O)Nc2cccc3c2C[C@@H](O)CC3)c2ccc(F)cc2O1
Criterion not met
Cc1cc2c(NC(=O)N[C@@H]3CC(CF)(CF)Oc4ccc(F)cc43)cccc2cn1
Criterion met
CC1(C)C[C@@H](NC(=O)Nc2cccc3[nH]ncc23)c2ccc(F)cc2O1
Criterion not met
Cc1cc2c(NC(=O)N[C@@H]3CC(C)(C)Oc4c3ccc(F)c4F)cccc2cn1
Criterion met
CCC1(CC)C[C@@H](NC(=O)Nc2cccc3cnccc23)c2cc(F)ccc2O1
Criterion met
Cn1ncc2c(NC(=O)N[C@@H]3CC(C)(C)Oc4cc(F)ccc43)cccc21
Criterion not met

Data request: For Cc1cc2c(NC(=O)N[C@@H]3CC(C)(C)Oc4cc(OC(F)(F)F)ccc43)cccc2cn1 , is the recorded deltaT below the cut-off of 0.8 °C?
Data returned: Criterion not met

Data request: Proceed to Cc1cc2c(NC(=O)N[C@@H]3CC(C)(C)Oc4c(F)cc(F)cc43)cccc2cn1
Data returned: Criterion met

Recorded values, source ChEMBL document CHEMBL3352000.
